The measurements presented in this section are drawn from PubChem BioAssay.

Each item that follows carries a reported percent of DMSO control GFP.
# test: rapamycin-like changes in RPL19A-GFP expression – cell-based, S. cerevisiae, multiplex flow cytometry, primary screen (AID 1862);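 also: lower values mimic rapamycin by blocking the RPL19A rise seen in DMSO cells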
# condition description: S. cerevisiae RPL19A-GFP strain, flow cytometry fluorescence, 3 h; at 10 µM; stronger effect = lower value
Records with an inconclusive call do not appear. The source made the active and inactive calls. Rule as the data show it: active = percent of DMSO control GFP below about 86%; inactive = the rest, inconclusive results apart.
quantity measured: percent of DMSO control GFP

COc1ccc(-c2cc(=Nc3ccc(C)cc3)c3ccccc3o2)cc1 | 97.3% (inactive)
CC(=O)OCC[N+](C)(C)C | 95.9% (inactive)
O=C1C(Cc2ccccc2)NC(=S)N1c1ccccc1 (stereo not drawn) | 96.1% (inactive)
